- Target Under Test: T1, dimeric hIL-4R-hFc (human, UniProt P24394 26-232)
- T1 construct: also called hIL-4R-Fc; not shown: human Fc (hFc)
- T1 sequence: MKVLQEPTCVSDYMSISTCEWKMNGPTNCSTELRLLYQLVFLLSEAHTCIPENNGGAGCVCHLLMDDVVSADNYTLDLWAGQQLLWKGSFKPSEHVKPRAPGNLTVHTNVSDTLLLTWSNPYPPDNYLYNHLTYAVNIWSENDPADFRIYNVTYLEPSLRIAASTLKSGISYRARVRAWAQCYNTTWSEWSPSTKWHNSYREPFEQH
- Assay Details: SPR (BIAcore 2000); antibody captured, dimeric hIL-4R-hFc injected
- Description: Binding affinity (KD) of selected antibodies with respect to hIL-4R was determined using a real-time biosensor surface plasmon resonance assay (BIAcore™ 2000). Briefly, antibody was captured on a goat anti-mouse (GAM) IgG polyclonal antibody surface created through direct chemical coupling of the GAM IgG to a BIAcore™ chip to form a captured antibody surface. […] Binding of antigen to antibody and dissociation of the bound complex, were monitored in real time. […]
Provide the recorded Kd for the entries that follow.
One number for each entry, in nM.

Binder	Measured
VAB 4D5-3 (antibody, V domains shown, Apparently tested with mouse constant region (anti-mouse IgG capture/detection)) VH: QVQLVQSGPEVKKPGASVKVSCKASGYTFTNYGISWVRQAPGQGLEWMGWISVYNGKTNYAQKFQGRVTMTTDTSTSTAYMDLRSLRSDDTAVYYCARGSGYDFDYWGQGTLVTVSS VL: AIQMTQSPSSLSASVGDRVTITCRASQGIRNALGWYQQKPGKAPKLLIFASSSLQSGVPSRFSGSGSGTDFTLTIRSLQPEDFAAYYCLQDYNYPYTFGQGTKLEIK	0.032

Continue with the next binder.
[Q] Given the binder VAB 8G10-1 (antibody, V domains shown, Apparently tested with mouse constant region (anti-mouse IgG capture/detection)) VH: QVQLVQSGPEVKKPGASVKVSCKASGYTFTNYGISWVRQAPGQGLEWMGWISVYNGNINYAQKLQGRVTMTTDTSTSTAYMDLRSLRSDDTAVYYCARGSGYDFDYWGQGTLVTVSS VL: AIQMTQSPSSLSASVGDRVTITCRASQDIRNALGWYQQKPGKAPKLLIYAASSLQSGVPSRFSGSASGTDFTLTISSLQPEDFAAYYCLQDYNYPYTFGQGTKLEIK , write its reported Kd.
[A] 5.51
